Each recorded value in this set is attributed to patent US11161839B2.

Readings of IC50 for the listed molecules
TARGET DESC: BCL6-NCOR2(SMRT) corepressor protein-protein interaction (Homo sapiens (Human), UniProt P41182)
PROTOCOL DESCRIPTION: NanoBRET cell assay in transfected HEK293T cells
Format: cell-based
DETAILS: further generated data (Table 2b); HEK293T cells, 6 hr; read-out: NanoBRET cell pIC50 (converted)
// note: answer is a bare numeric in µM

- MOLECULE: "C[C@@H](Nc1nc(=O)n(C)c2ccc(Nc3ccnc(Cl)c3Cl)cc12)C1CC1"
  RECORDED MEASUREMENT: 1.82

Lookup result for Cn1c(=O)cc(NC(C)(C)c2ccccn2)c2cc(Nc3ccnc(Cl)c3C#N)ccc21 [Example 11b] ; measured IC50: 1.29

Lookup result for CC(C)(Nc1cc(=O)n(CC2CCCCC2)c2ccc(Nc3ccnc(Cl)c3C#N)cc12)c1ncccn1 [Example 10o] ; measured IC50: 2.29
